# Substrate: O=C(O)c1cc(C(=O)O)oc(=O)c1
# TEST_SUMMARY: purified protein
# Format: biochemical, Sphingobium sp. SYK-6
# EXPERIMENTAL_SETUP: 50 mM BICINE pH 8.25, 30 °C
# maps each entry to its kcat

>  <PROTEIN>
LigI (Sphingobium sp. SYK-6; Y47F) (protein) TNDERILSWNETPSKPRYTPPPGAIDAHCHVFGPMAQFPFSPKAKFLPRDAGPDMLFALRDHLGFARNVIVQASCHGTDNAATLDAIARAQGKARGIAVVDPAIDEAELAALHEGGMRGIRFNFLKRLVDDAPKDKFLEVAGRLPAGWHVVIYFEADILEELRPFMDAIPVPIVIDHMGRPDVRQGPDGADMKAFRRLLDSREDIWFKATCPDRLDPAGPPWDDFARSVAPLVADYADRVIWGTDWPHPNMQDAIPDDGLVVDMIPRIAPTPELQHKMLVTNPMRLYWSEEM

>  <U>
s⁻¹

>  <kcat>
26

$$$$
>  <PROTEIN>
LigI (Sphingobium sp. SYK-6; Y154F) (protein) TNDERILSWNETPSKPRYTPPPGAIDAHCHVFGPMAQFPFSPKAKYLPRDAGPDMLFALRDHLGFARNVIVQASCHGTDNAATLDAIARAQGKARGIAVVDPAIDEAELAALHEGGMRGIRFNFLKRLVDDAPKDKFLEVAGRLPAGWHVVIFFEADILEELRPFMDAIPVPIVIDHMGRPDVRQGPDGADMKAFRRLLDSREDIWFKATCPDRLDPAGPPWDDFARSVAPLVADYADRVIWGTDWPHPNMQDAIPDDGLVVDMIPRIAPTPELQHKMLVTNPMRLYWSEEM

>  <U>
s⁻¹

>  <kcat>
8.7

$$$$
